Test system: NCI-H522 lung
assay: NCI tumour cell line growth inhibition, 48 h
Exercise: for every item that follows, state its recorded log10 of TGI.
Transform log10 | Measure TGI | Unit µM

## Input Answer with the recorded log10 of TGI of CN(C)CCNC(=O)C1COc2cc(-c3cc(=O)c4ccccc4o3)ccc2O1 (stereo unspecified) only.
## Output 1.49

## Input Answer with the recorded log10 of TGI of `c1ccc(N=C(N2CCCCC2)N(CCN2CCCCC2)c2ccccc2)cc1` only.
## Output 0.66

## Input Answer with the recorded log10 of TGI of `C=C(C)[C@@H]1CC[C@]2(C(N)=O)CC[C@]3(C)[C@H](CC[C@@H]4[C@@]5(C)C/C(=C/c6cccnc6)C(=O)C(C)(C)[C@@H]5CC[C@]43C)[C@@H]12` only.
## Output 1.80

## Input Answer with the recorded log10 of TGI of `CN(C)CCNc1ccc2nnn3c4ccc(O)cc4c(=O)c1c23` only.
## Output 1.27

## Input Answer with the recorded log10 of TGI of `COc1ccc2c(c1OC)OC[C@@H](C1=CC(=O)C=C(O)C1=O)C2` only.
## Output 0.95

## Input Answer with the recorded log10 of TGI of `COc1cc2c3c(n(CCCN)c(=O)c2cc1OC)-c1ccc(N(C)C)cc1C3=O` only.
## Output 1.58

## Input Answer with the recorded log10 of TGI of `COc1ccc(CCc2nc3cc(-c4c(C)noc4C)ccc3n2CCN2CCOCC2)cc1` only.
## Output 1.84

## Input Answer with the recorded log10 of TGI of COc1cc(Br)c(CC2C3=C(CCN2C(=O)C2CCC2)CC2(CC3)OCCO2)cc1O (stereo unspecified) only.
## Output 1.99

## Input Answer with the recorded log10 of TGI of `O=S(=O)(Nc1ccc2ccccc2c1)N1CCCCC1` only.
## Output 0.90

----------
Exercise: for every item that follows, state its recorded GI50.
Test system: BT-549 breast
assay: NCI tumour cell line growth inhibition, 48 h
Where a SMILES comes first, the peptide text is derived from it.

## Input Answer with the recorded GI50 of `CCCCCCCCn1ccc2cc(NC(=O)Cn3cc(CN4CCN(CC)CC4)nn3)ccc21` only.
## Output 1.76 µM

## Input Answer with the recorded GI50 of COC(=O)C(C)NP(=O)(OCc1ccc(Cn2cnc3c(N)ncnc32)cc1)Oc1ccccc1 (configuration not stated) only.
## Output 24.2 µM

## Input Answer with the recorded GI50 of `C#CC#CC#CC#CC#CC#CC#CC#CC[C@@H]1OC[C@H](COC(=O)O[C@@H](C(=O)O[C@H]2C[C@@]3(O)[C@@H](OC(=O)c4ccccc4)[C@@H]4[C@]5(OC(C)=O)CO[C@@H]5C[C@H](O)[C@@]4(C)C(=O)[C@H](OC(C)=O)C(=C2C)C3(C)C)[C@@H](NC(=O)c2ccccc2)c2ccccc2)O1` only.
## Output 3.71 µM

## Input Answer with the recorded GI50 of CCC(C)C1NC(=O)C(CCCCN)NC(=O)C(CCCCN)NC(=O)C(CC(C)C)NC(=O)C(CCCCN)NC(=O)C(C(C)CC)NC(=O)C(C(C)C)NC(=O)C(C(C)CC)NC(=O)C(CCCCN)NC(=O)C(CCCCN)NC(=O)C(C)NC(=O)C(CCCCN)NC(=O)C(CC(C)C)NC1=O (configuration not stated) (cyclo(AKKIVIKLKKILK); configuration not given here) only.
## Output 1.79 µM

## Input Answer with the recorded GI50 of `COc1ccc(/C=C(/C(=O)N2CCCCC2)c2cc(OC)c(OC)c(OC)c2)cc1` only.
## Output 0.417 µM

## Input Answer with the recorded GI50 of Oc1ccc2c(c1)OCC1(O)Cc3cc(O)c(O)cc3C21 (configuration not stated) only.
## Output 14.8 µM

## Input Answer with the recorded GI50 of `CCCCCCCC/C(=C\C1=C(C)C(=O)C(OC)=C(OC)C1=O)C(=O)O` only.
## Output 24.2 µM

Data origin: PubChem BioAssay (NCI)
